Target: T1, full-length recombinant human PAD4 (human, UniProt Q9UM07 1-663)
T1 construct: Full-length recombinant; also called peptidylarginine deiminase 4
T1 sequence (Q9UM07 whole entry): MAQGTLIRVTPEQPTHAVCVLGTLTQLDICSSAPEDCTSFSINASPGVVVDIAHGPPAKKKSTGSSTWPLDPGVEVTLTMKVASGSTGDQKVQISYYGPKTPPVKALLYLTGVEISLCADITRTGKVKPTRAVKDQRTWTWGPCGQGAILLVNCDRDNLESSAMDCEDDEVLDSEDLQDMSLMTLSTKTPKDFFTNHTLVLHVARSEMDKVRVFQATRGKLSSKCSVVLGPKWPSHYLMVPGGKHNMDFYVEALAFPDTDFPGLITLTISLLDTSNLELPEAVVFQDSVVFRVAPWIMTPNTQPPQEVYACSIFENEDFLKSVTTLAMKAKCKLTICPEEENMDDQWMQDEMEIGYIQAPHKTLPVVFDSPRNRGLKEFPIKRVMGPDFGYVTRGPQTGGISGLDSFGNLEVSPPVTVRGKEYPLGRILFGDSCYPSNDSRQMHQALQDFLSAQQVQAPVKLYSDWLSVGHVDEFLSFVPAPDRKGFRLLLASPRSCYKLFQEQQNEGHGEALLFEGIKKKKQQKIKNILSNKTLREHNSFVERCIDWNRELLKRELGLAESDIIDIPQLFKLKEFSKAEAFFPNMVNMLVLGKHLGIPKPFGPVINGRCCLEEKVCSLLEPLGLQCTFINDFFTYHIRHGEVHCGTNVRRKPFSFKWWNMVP
Assay: ELISA, immobilized human PAD4
MEASUREMENT NAME: O.D. 490/630 at 0.0625 µg/mL
Please reply with the number alone, leaving off any unit.

Below are worked cases with known answers.
# BINDER, REPORTED VALUE
measured = [
    ("humanized anti-PAD4 antibody derived from H7, VH H4.32 / VL L4.17 (antibody, IgG1, V domains shown, IgG1 kappa; also called H7 H4.32/L4.17) VH: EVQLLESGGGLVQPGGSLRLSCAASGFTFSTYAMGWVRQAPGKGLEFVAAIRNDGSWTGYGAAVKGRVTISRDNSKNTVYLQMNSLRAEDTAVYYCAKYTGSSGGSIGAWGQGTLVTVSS VL: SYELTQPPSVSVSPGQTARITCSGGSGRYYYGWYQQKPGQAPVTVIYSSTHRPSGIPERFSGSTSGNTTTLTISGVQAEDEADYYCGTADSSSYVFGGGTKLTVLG", 1.98),
    ("humanized anti-PAD4 antibody derived from G8, VH H4.32 / VL L4.29 (antibody, IgG1, V domains shown, IgG1 kappa; also called G8 H4.32/L4.29) VH: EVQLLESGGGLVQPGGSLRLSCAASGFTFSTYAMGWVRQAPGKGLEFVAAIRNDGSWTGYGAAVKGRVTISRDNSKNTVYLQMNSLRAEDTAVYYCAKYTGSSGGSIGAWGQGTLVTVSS VL: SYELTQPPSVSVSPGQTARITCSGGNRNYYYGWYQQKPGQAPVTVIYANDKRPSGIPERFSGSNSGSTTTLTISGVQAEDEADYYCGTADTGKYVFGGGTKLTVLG", 1.9),
]

Next, consider the following binder.
QUERY: For the binder humanized anti-PAD4 antibody derived from G8, VH H4.32 / VL L4.00 (antibody, IgG1, V domains shown, IgG1 kappa; also called G8 H4.32/L4.00) VH: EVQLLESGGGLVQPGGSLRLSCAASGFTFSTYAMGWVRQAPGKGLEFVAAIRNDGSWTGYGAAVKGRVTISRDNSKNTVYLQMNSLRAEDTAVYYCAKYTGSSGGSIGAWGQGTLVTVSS VL: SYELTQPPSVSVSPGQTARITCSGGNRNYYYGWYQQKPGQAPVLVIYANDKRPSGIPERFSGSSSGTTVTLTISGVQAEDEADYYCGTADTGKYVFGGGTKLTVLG , what O.D. 490/630 at 0.0625 µg/mL is on record?
RESULT: 1.52
